src = BindingDB's records for doi:10.1021/acs.jmedchem.9b01562

# assay comment: Inhibition of NS5A in HCV genotype 1a infected in human HuH7.5/Con1/SG-Neo(I)-hRluc2aUb cells assessed as inhibition of replicon levels incubated for 72 hrs by luciferase reporter gene assay
readout: IC50 (pM)

COC(=O)N[C@H](C(=O)N1CCC[C@H]1c1ncc(-c2ccc3c(ccc4cc(-c5cnc([C@@H]6CCCN6C(=O)[C@@H](NC(=O)OC)C(C)C)[nH]5)sc43)c2)[nH]1)C(C)C ... 27
COC(=O)N[C@H](C(=O)N1CCC[C@H]1c1ncc(-c2ccc3c(c2)OCc2cc(-c4cnc([C@@H]5CCCN5C(=O)[C@@H](NC(=O)OC)C(C)C)[nH]4)sc2-3)[nH]1)C(C)C ... 31

###

# assay comment: Inhibition of NS5A in HCV genotype 1b infected in human HuH7.5/Con1/SG-Neo(I)-hRluc2aUb cells assessed as inhibition of replicon levels incubated for 72 hrs by luciferase reporter gene assay
pIC50: −log10 of the molar value.
readout: pIC50

COC(=O)N[C@H](C(=O)N1CCC[C@H]1c1ncc(-c2ccc3c(ccc4cc(-c5cnc([C@@H]6[C@@H]7CC[C@@H](C7)N6C(=O)[C@@H](NC(=O)OC)C(C)C)[nH]5)sc43)c2)[nH]1)C(C)C ... 10.89

(I) COC(=O)N[C@H](C(=O)N1CCC[C@H]1c1ncc(-c2ccc3c(ccc4cc(-c5cnc([C@@H]6CCCN6C(=O)[C@@H](NC(=O)OC)C(C)C)[nH]5)sc43)c2)[nH]1)C(C)C
(II) COC(=O)N[C@H](C(=O)N1CCC[C@H]1c1nc(C2CC2)c(-c2ccc3c(c2)OCC(C)(C)COc2cc(-c4[nH]c([C@@H]5CCCN5C(=O)[C@@H](NC(=O)OC)C(C)C)nc4C4CC4)ccc2-3)[nH]1)C(C)C
Higher pIC50 between I and II ? Answer by stating the label of the chosen item.
I

###

# assay comment: Inhibition of NS5A in HCV genotype 4a infected in human HuH7.5/Con1/SG-Neo(I)-hRluc2aUb cells assessed as inhibition of replicon levels incubated for 72 hrs by luciferase reporter gene assay
pIC50: −log10 of the molar value.
readout: pIC50

(P) COC(=O)N[C@H](C(=O)N1CCC[C@H]1c1ncc(-c2ccc3c(ccc4cc(-c5cnc([C@@H]6CCCN6C(=O)[C@@H](NC(=O)OC)C(C)C)[nH]5)sc43)c2)[nH]1)C(C)C
(Q) COC(=O)N[C@H](C(=O)N1CCC[C@H]1c1ncc(-c2ccc3c(c2)OCc2cc(-c4cnc([C@@H]5CCCN5C(=O)[C@@H](NC(=O)OC)C(C)C)[nH]4)sc2-3)[nH]1)C(C)C
Of P and Q , which carries the smaller reported pIC50 figure? Write down the label of the entry you select.
Q
(Q: 11.05, P: 11.52)

###

# assay comment: Inhibition of NS5A in HCV genotype 1b infected in human HuH7.5/Con1/SG-Neo(I)-hRluc2aUb cells assessed as inhibition of replicon levels incubated for 72 hrs by luciferase reporter gene assay
pIC50: −log10 of the molar value.
readout: pIC50

COC(=O)N[C@H](C(=O)N1CCC[C@H]1c1nc(Cl)c(-c2ccc3c(c2)CCCc2cc(-c4[nH]c([C@@H]5CCCN5C(=O)[C@@H](NC(=O)OC)C(C)C)nc4Cl)sc2-3)[nH]1)C(C)C ... 10.70

(P) COC(=O)N[C@H](C(=O)N1CCC[C@H]1c1ncc(-c2ccc3c(c2)OCCCCOc2cc(-c4cnc([C@@H]5CCCN5C(=O)[C@@H](NC(=O)OC)C(C)C)[nH]4)ccc2-3)[nH]1)C(C)C
(Q) COC(=O)N[C@H](C(=O)N1CCC[C@H]1c1ncc(-c2ccc(C34CCC(c5ccc(-c6cnc([C@@H]7CCCN7C(=O)[C@@H](NC(=O)OC)C(C)C)[nH]6)cc5)(CC3)CC4)cc2)[nH]1)C(C)C
(R) COC(=O)N[C@H](C(=O)N1CCC[C@H]1c1nc(Cl)c(-c2ccc3c(c2)OCCCOc2cc(-c4[nH]c([C@@H]5CCCN5C(=O)[C@@H](NC(=O)OC)C(C)C)nc4Cl)ccc2-3)[nH]1)C(C)C
(S) COC(=O)N[C@H](C(=O)N1CCC[C@H]1c1ncc(-c2ccc(N3CC4CC3CN4c3ccc(-c4cnc([C@@H]5CCCN5C(=O)[C@@H](NC(=O)OC)C(C)C)[nH]4)cc3)cc2)[nH]1)C(C)C
Please put the entries in order of rising pIC50. API: response body holds the labels in the requested order.
S, Q, P, R
(S: 8.43, Q: 9.51, P: 9.71, R: 10.72)

###

# assay comment: Inhibition of NS5A in HCV genotype 3a infected in human HuH7.5/Con1/SG-Neo(I)-hRluc2aUb cells assessed as inhibition of replicon levels incubated for 72 hrs by luciferase reporter gene assay
pIC50: −log10 of the molar value.
readout: pIC50

(A) COC(=O)N[C@H](C(=O)N1CCC[C@H]1c1ncc(-c2ccc3c(c2)OCc2cc(-c4cnc([C@@H]5CCCN5C(=O)[C@@H](NC(=O)OC)C(C)C)[nH]4)sc2-3)[nH]1)C(C)C
(B) COC(=O)N[C@H](C(=O)N1CCC[C@H]1c1ncc(-c2ccc3c(ccc4cc(-c5cnc([C@@H]6CCCN6C(=O)[C@@H](NC(=O)OC)C(C)C)[nH]5)sc43)c2)[nH]1)C(C)C
Lab notebook, comparison: A versus B , higher pIC50 goes to which? Lab note: record the label of whichever item you select.
B
(B: 10.33, A: 10.12)

###

# assay comment: Inhibition of NS5A in HCV genotype 2a infected in human Huh7.5/J6/JFH1/EMCVIRES/hRlucNeo cells assessed as inhibition of replicon levels incubated for 72 hrs by luciferase reporter gene assay
readout: IC50 (nM)

Would you please look over these solved cases?
COC(=O)N[C@H](C(=O)N1CCC[C@H]1c1ncc(-c2ccc(N3CCN(c4ccc(-c5cnc([C@@H]6CCCN6C(=O)[C@@H](NC(=O)OC)C(C)C)[nH]5)cc4)CC3)cc2)[nH]1)C(C)C ... 4.6
COC(=O)N[C@H](C(=O)N1CCC[C@H]1c1nc(-c2ccc(-c3ccc(-c4c[nH]c([C@@H]5CCCN5C(=O)[C@@H](NC(=O)OC)C(C)C)n4)cc3)cc2)c[nH]1)C(C)C [BMS-790052] ... 0.009

(P) COC(=O)N[C@H](C(=O)N1CCC[C@H]1c1ncc(-c2ccc3c(ccc4cc(-c5cnc([C@@H]6[C@@H]7CC[C@@H](C7)N6C(=O)[C@@H](NC(=O)OC)C(C)C)[nH]5)sc43)c2)[nH]1)C(C)C
(Q) COC(=O)N[C@H](C(=O)N1CCC[C@H]1c1ncc(-c2ccc(N3CC4CC3CN4c3ccc(-c4cnc([C@@H]5CCCN5C(=O)[C@@H](NC(=O)OC)C(C)C)[nH]4)cc3)cc2)[nH]1)C(C)C
(R) COC(=O)N[C@H](C(=O)N1CCC[C@H]1c1ncc(-c2ccc3c(c2)OCC(C)(C)COc2cc(-c4cnc([C@@H]5CCCN5C(=O)[C@@H](NC(=O)OC)C(C)C)[nH]4)ccc2-3)[nH]1)C(C)C
Could you please order the items by IC50, going from the lowest number to the highest? I would appreciate it if you listed the labels in the requested order.
P, R, Q
(P: 0.011 nM, R: 0.176 nM, Q: 4 nM)

###

# assay comment: Inhibition of NS5A in HCV genotype 6a infected in human HuH7.5/Con1/SG-Neo(I)-hRluc2aUb cells assessed as inhibition of replicon levels incubated for 72 hrs by luciferase reporter gene assay
pIC50: −log10 of the molar value.
readout: pIC50

(A) COC(=O)N[C@H](C(=O)N1CCC[C@H]1c1ncc(-c2ccc3c(ccc4cc(-c5cnc([C@@H]6CCCN6C(=O)[C@@H](NC(=O)OC)C(C)C)[nH]5)sc43)c2)[nH]1)C(C)C
(B) COC(=O)N[C@H](C(=O)N1CCC[C@H]1c1ncc(-c2ccc3c(c2)OCc2cc(-c4cnc([C@@H]5CCCN5C(=O)[C@@H](NC(=O)OC)C(C)C)[nH]4)sc2-3)[nH]1)C(C)C
Problem: Given the entries A and B , determine which has the lower reported pIC50. In your reply, give the label of the chosen option.
B

###

# assay comment: Inhibition of NS5A in HCV genotype 2a infected in human Huh7.5/J6/JFH1/EMCVIRES/hRlucNeo cells assessed as inhibition of replicon levels incubated for 72 hrs by luciferase reporter gene assay
pIC50: −log10 of the molar value.
readout: pIC50

See these solved cases before continuing.
COC(=O)N[C@H](C(=O)N1CCC[C@H]1c1nc(Cl)c(-c2ccc3c(c2)OCCc2cc(-c4[nH]c([C@@H]5CCCN5C(=O)[C@@H](NC(=O)OC)C(C)C)nc4Cl)sc2-3)[nH]1)C(C)C ... 8.89
COC(=O)N[C@H](C(=O)N1CCC[C@H]1c1nc(Cl)c(-c2ccc3c(c2)OCCCOc2cc(-c4[nH]c([C@@H]5CCCN5C(=O)[C@@H](NC(=O)OC)C(C)C)nc4Cl)ccc2-3)[nH]1)C(C)C ... 10.51

(I) COC(=O)N[C@H](C(=O)N1CCC[C@H]1c1ncc(-c2ccc3c(c2)OCCc2cc(-c4cnc([C@@H]5CCCN5C(=O)[C@@H](NC(=O)OC)C(C)C)[nH]4)sc2-3)[nH]1)C(C)C
(II) COC(=O)N[C@H](C(=O)N1CCC[C@H]1c1ncc(-c2ccc(C34CCC(c5ccc(-c6cnc([C@@H]7CCCN7C(=O)[C@@H](NC(=O)OC)C(C)C)[nH]6)cc5)(CC3)CC4)cc2)[nH]1)C(C)C
(III) COC(=O)N[C@H](C(=O)N1CCC[C@H]1c1ncc(-c2ccc3c(c2)OCC(C)(C)COc2cc(-c4[nH]c([C@@H]5CCCN5C(=O)[C@@H](NC(=O)OC)C(C)C)nc4Cl)ccc2-3)[nH]1)C(C)C
In this exercise, place the 3 compounds in ascending sequence of their recorded pIC50. Put the labels in the requested order and list them out.
II, I, III
(II: 7.47, I: 7.97, III: 9.17)
